meta.source: patent US20210347900A1

- TARGET_UNDER_TEST: T1, rabbit LOX1-(FlagHis) extracellular domain (rabbit, UniProt Q9XTA8 55-274)
- T1 construct: extracellular domain
- EXPERIMENT_DESCRIPTION: IgG binding ELISA on coated antigen, europium anti-human IgG detection
ENDPOINT_LABEL: binding result

- LX5140110 IgG1-TM (antibody, V domains shown, Whole human IgG1-TM (L234F/L235E/P331S); also called LOX514110; LOX514_110) VH: QVQLVQSGAEVKKPGASVKVSCKVSGYTLTELSMHWVRQAPGKGLEWMGGFDPEDFKYHTHQKFQGRVTMTEDTSTDTAYMELSSLRSEDTAVYYCALVWGTQGKGVRGWDYYYGMDVWGQGTTVTVSS VL: QSVVTQPPSVSGAPGQRVTISCTGSSSNIGAGYDVHWYQQLPGTAPKLLIYGNSNRPSGVPDRFSGSKSGTSASLAITGLQAEDEADYYCQSYDSSLSGWVFGGGTKLTVL: binds
- LX5140108 IgG1-TM (antibody, V domains shown, Whole human IgG1-TM (L234F/L235E/P331S)) VH: QVQLVQSGAEVKKPGASVKVSCKVSGYTLTELSMHWVRQAPGKGLEWMGGFDPEDWSNHVSQKFQGRVTMTEDTSTDTAYMELSSLRSEDTAVYYCLTSTGRQGKGVRGWDYYYGMDVWGQGTTVTVSS VL: QSVVTQPPSVSGAPGQRVTISCTGSSSNIGAGYDVHWYQQLPGTAPKLLIYGNSNRPSGVPDRFSGSKSGTSASLAITGLQAEDEADYYCQSYDSSLSGWVFGGGTKLTVL: binds
